Each recorded value in this set is attributed to patent US20130209386A1.

- Test system: C. striatum NCTC 764
- protocol-text: Fixed ratio combination MIC/MBC assays
- Assay type: cell-based, Corynebacterium striatum
- measurement-setup: C. striatum NCTC 764; compound alone
Marks after values point to notes of the source that are not given here.
measured-quantity: MIC

-- ask Identify the reported MIC for the following entry. O=C1CC[C@@H](C(=O)[O-])N1.O=C1CC[C@@H](C(=O)[O-])N1.[Cu+2] [Copper (II) PCA]
-- reply >81.9** μg/ml

-- ask Identify the reported MIC for the following entry. CC(=O)c1c([O-])c(C)c([O-])c2c1OC1=CC(=O)C(C(C)=O)C(=O)C12C.[Cu+2] (stereo not drawn) [Copper (II) usnate]
-- reply 3 µg/mL

-- ask Identify the reported MIC for the following entry. [Cl][Cu][Cl] [Copper (II) chloride]
-- reply >34.4** μg/ml

-- ask Identify the reported MIC for the following entry. O.O=C(O)CC(O)(CC(=O)O)C(=O)O.[Ag].[Ag].[Ag] [Silver (I) citrate hydrate]
-- reply 2.83 µg/mL

-- ask Identify the reported MIC for the following entry. O=C(O)c1cc(O)c2c(c1)[O][Bi]([OH])[O]2 [Bismuth (III) subgallate]
-- reply >67.2** μg/ml

-- ask Identify the reported MIC for the following entry. [Cu+].[I-] [Copper (I) iodide]
-- reply >97.5** μg/ml

---

Would you mind telling me the reported MBC of each entry?
- System: Propionibacterium acnes NCTC 737
- protocol-text: Minimum biocidal concentration (MBC) assay
- Type: cell-based
- measurement-setup: P. acnes NCTC 737; compound alone
- Source text: The first test organism used was Propionibacterium acnes NCTC 737. This is a propionibacterial strain and is the type strain of the genus; it is fully susceptible to antibiotics. The propionibacteria are clinically significant due to their involvement in acne. They are also opportunistic pathogens in compromised hosts. Activity observed against these micro-organisms is expected to be a good predictor of activity against acne. […]
Express it in µg/mL; write the number only.

-- ask Identify the reported MBC for the following entry. [Cu+].[I-] [Copper (I) iodide]
-- reply 31.25

-- ask Identify the reported MBC for the following entry. CSCC[C@H](NC(C)=O)C(=O)[O-].CSCC[C@H](NC(C)=O)C(=O)[O-].[Cu+2] [Copper (II) acetylmethionate]
-- reply 125

-- ask Identify the reported MBC for the following entry. [Cl][Cu][Cl] [Copper (II) chloride]
-- reply 31.25

-- ask Identify the reported MBC for the following entry. CC(=O)c1c([O-])c(C)c([O-])c2c1OC1=CC(=O)C(C(C)=O)C(=O)C12C.[Cu+2] (stereo not drawn) [Copper (II) usnate]
-- reply 1.95

-- ask Identify the reported MBC for the following entry. O=C1CC[C@@H](C(=O)[O-])N1.O=C1CC[C@@H](C(=O)[O-])N1.[Cu+2]
-- reply 62.5

---

- System: Propionibacterium acnes NCTC 737
- protocol-text: Disc diffusion assay (DDA) and synergy disc diffusion assay (SDDA)
- Format: cell-based
- measurement-setup: copper salt + tropolone versus the greater single zone
measured-quantity: SDDA area increase (%)
Express it in %; write the number only.

-- ask Identify the reported SDDA area increase for the following entry. CC(=O)c1c([O-])c(C)c([O-])c2c1OC1=CC(=O)C(C(C)=O)C(=O)C12C.[Cu+2] (stereo not drawn) [Copper (II) usnate]
-- reply 22.13

-- ask Identify the reported SDDA area increase for the following entry. [Cl][Cu][Cl] [Copper (II) chloride]
-- reply 1.94

-- ask Identify the reported SDDA area increase for the following entry. [Cu+].[I-] [Copper (I) iodide]
-- reply 24.28

-- ask Identify the reported SDDA area increase for the following entry. CSCC[C@H](NC(C)=O)C(=O)[O-].CSCC[C@H](NC(C)=O)C(=O)[O-].[Cu+2] [Copper (II) acetylmethionate]
-- reply 306.27

-- ask Identify the reported SDDA area increase for the following entry. O=C1CC[C@@H](C(=O)[O-])N1.O=C1CC[C@@H](C(=O)[O-])N1.[Cu+2]
-- reply 55.70

-- ask Identify the reported SDDA area increase for the following entry. O=C([O-])CN(CCN(CC(=O)[O-])CC(=O)[O-])CC(=O)[O-].[Cu+2].[Na+].[Na+] [EDTA copper (II) disodium salt]
-- reply 328.62
